procedure.text: in vivo
recorded.conditions: mouse, plasma, po, 20 mg/kg
measured.endpoint: Cmax

For Cc1occc1C(=O)Nc1nn(Cc2ccc(C(F)(F)F)cc2)c2ccccc12 , what is its reported Cmax?
0.541 µg/mL

---

procedure.text: in vivo
recorded.conditions: mouse, plasma, po, 20 mg/kg
measured.endpoint: AUC(0-inf) (ng·h/mL)
Give your result in ng·h/mL as a bare value.

Data request, read-out AUC(0-inf), for Cc1occc1C(=O)Nc1nn(Cc2ccc(C(F)(F)F)cc2)c2ccccc12 [NP-G2-044]
2570

---

procedure.text: in vivo
recorded.conditions: mouse, plasma, iv, 20 mg/kg
measured.endpoint: half-life (h)
Your answer is read as h, so omit the unit and give the number.

Can you share its half-life? I mean this molecule: Cc1occc1C(=O)Nc1nn(Cc2ccc(C(F)(F)F)cc2)c2ccccc12
5.45

---

procedure.text: in vivo
recorded.conditions: mouse, plasma, iv, 20 mg/kg
measured.endpoint: clearance (mL/min/kg)
Form entry: value (mL/min/kg) — number only.

Record request: clearance value, item Cc1occc1C(=O)Nc1nn(Cc2ccc(C(F)(F)F)cc2)c2ccccc12 [NP-G2-044]
48

---

procedure.text: in vivo
recorded.conditions: mouse, plasma, po, 50 mg/kg
measured.endpoint: MRT last (h)
Please reply with the bare figure in h and do not write the unit itself.

# MRT last lookup, item Cc1occc1C(=O)Nc1nn(Cc2ccc(C(F)(F)F)cc2)c2ccccc12 [NP-G2-044]
7.4

---

procedure.text: Plasma protein binding assay with mouse plasma
Type: in vitro ADME
recorded.conditions: in the presence of 100% serum
measured.endpoint: fraction unbound

Entry under review: Cc1occc1C(=O)Nc1nn(Cc2ccc(C(F)(F)F)cc2)c2ccccc12 . Reported fraction unbound?
~0.003

---

procedure.text: in vivo
recorded.conditions: mouse, plasma, po, 100 mg/kg
measured.endpoint: AUC(0-inf) (ng·h/mL)
The answer is to be given in ng·h/mL; state only the numeric part.

May I ask what AUC(0-inf) has been recorded for Cc1occc1C(=O)Nc1nn(Cc2ccc(C(F)(F)F)cc2)c2ccccc12 ?
14300

---

procedure.text: in vivo
recorded.conditions: mouse, plasma, po, 50 mg/kg
measured.endpoint: AUC(0-t) (µg·h/mL)
Only the number, expressed in µg·h/mL, is required.

Consider the molecule Cc1occc1C(=O)Nc1nn(Cc2ccc(C(F)(F)F)cc2)c2ccccc12 and give its measured AUC(0-t).
6.19

---

procedure.text: in vivo
recorded.conditions: mouse, plasma, po, 100 mg/kg
measured.endpoint: bioavailability (%)
# output: bare number, implied unit %

// bioavailability lookup, key: Cc1occc1C(=O)Nc1nn(Cc2ccc(C(F)(F)F)cc2)c2ccccc12
39.2

---

procedure.text: in vivo
recorded.conditions: mouse, plasma, po, 50 mg/kg
measured.endpoint: bioavailability
The reply should consist of the numeric value with the unit placed after it.

For Cc1occc1C(=O)Nc1nn(Cc2ccc(C(F)(F)F)cc2)c2ccccc12 , what is its reported bioavailability?
34.1%

---

procedure.text: in vivo
recorded.conditions: mouse, plasma, po, 50 mg/kg
measured.endpoint: half-life (h)
Answer with a number only, understood to be in h.

What value of measured half-life is listed for Cc1occc1C(=O)Nc1nn(Cc2ccc(C(F)(F)F)cc2)c2ccccc12 ?
3.58

---

procedure.text: in vivo
recorded.conditions: mouse, plasma, po, 100 mg/kg
measured.endpoint: MRT inf (h)
Your answer is read as h, so omit the unit and give the number.

// returns reported MRT inf for input Cc1occc1C(=O)Nc1nn(Cc2ccc(C(F)(F)F)cc2)c2ccccc12 [NP-G2-044]
8.4

---

procedure.text: in vivo
recorded.conditions: mouse, plasma, iv, 20 mg/kg
measured.endpoint: C0 (ng/mL)
Respond numerically; units are ng/mL and should not be typed.

Fill in: C0 of Cc1occc1C(=O)Nc1nn(Cc2ccc(C(F)(F)F)cc2)c2ccccc12 [NP-G2-044] is ___
11300

---

procedure.text: in vivo
recorded.conditions: mouse, plasma, po, 100 mg/kg
measured.endpoint: Tmax (h)
Record the value in h, omitting the unit from your answer.

State the recorded Tmax for this entry: Cc1occc1C(=O)Nc1nn(Cc2ccc(C(F)(F)F)cc2)c2ccccc12
6

---

procedure.text: in vivo
recorded.conditions: mouse, plasma, po, 100 mg/kg
measured.endpoint: AUC(0-t) (µg·h/mL)
Respond with the bare value in µg·h/mL.

Recorded AUC(0-t) of Cc1occc1C(=O)Nc1nn(Cc2ccc(C(F)(F)F)cc2)c2ccccc12 , please.
14.3

---

procedure.text: in vivo
recorded.conditions: mouse, plasma, iv, 20 mg/kg
measured.endpoint: AUC(0-t) (µg·h/mL)
Numeric answer only, unit µg·h/mL assumed.

Query: AUC(0-t); subject: Cc1occc1C(=O)Nc1nn(Cc2ccc(C(F)(F)F)cc2)c2ccccc12
7.15

---

procedure.text: in vivo
recorded.conditions: mouse, plasma, po, 50 mg/kg
measured.endpoint: Tmax (h)
Number in h, nothing else.

Entry Cc1occc1C(=O)Nc1nn(Cc2ccc(C(F)(F)F)cc2)c2ccccc12 : reported Tmax = ?
4.17

---

procedure.text: in vivo
recorded.conditions: mouse, plasma, po, 20 mg/kg
measured.endpoint: AUC(0-t) (ng·h/mL)
Your answer should be a plain number; it is taken to be in ng·h/mL.

# get_value(readout='AUC(0-t)', item= Cc1occc1C(=O)Nc1nn(Cc2ccc(C(F)(F)F)cc2)c2ccccc12 )
2550

---

procedure.text: in vivo
recorded.conditions: mouse, plasma, iv, 20 mg/kg
measured.endpoint: MRT inf (h)
Respond with the bare value in h.

Any idea what MRT inf was measured for Cc1occc1C(=O)Nc1nn(Cc2ccc(C(F)(F)F)cc2)c2ccccc12 [NP-G2-044] ?
3.34

---

procedure.text: in vivo
recorded.conditions: mouse, plasma, po, 20 mg/kg
measured.endpoint: bioavailability (%)
Write the number in % without appending the unit.

What bioavailability value was documented for this compound, Cc1occc1C(=O)Nc1nn(Cc2ccc(C(F)(F)F)cc2)c2ccccc12 ?
35.3

---

procedure.text: in vivo
recorded.conditions: mouse, plasma, po, 50 mg/kg
measured.endpoint: AUC(0-inf) (ng·h/mL)
Enter your answer as a number in ng·h/mL; do not include the unit.

Return reported AUC(0-inf); argument: Cc1occc1C(=O)Nc1nn(Cc2ccc(C(F)(F)F)cc2)c2ccccc12
6210
